Taken from ChEMBL document CHEMBL1130223.

Species on record: Rattus norvegicus
Assay: Inhibitory activity for 5-HT uptake was determined using [3H]- Citalopram
Format: functional

{"compound": "Fc1ccc2c(c1)nc(N1CCNCC1)c1cccn12", "IC50 / nM": 203}
{"compound": "Fc1cccc2nc(N3CCNCC3)c3cccn3c12", "IC50 / nM": 1130}
{"compound": "NCCc1c[nH]c2ccc(O)cc12 [SEROTONIN]", "IC50 / nM": 369}
{"compound": "c1ccc2nc(N3CCNCC3)ccc2c1 [QUIPAZINE]", "IC50 / nM": 204}
{"compound": "CN1CCN(c2nc3cc(F)ccc3n3cccc23)CC1", "IC50 / nM": 232}
{"compound": "CN1CCN(c2nc3ccccc3n3cccc23)CC1", "IC50 / nM": 214}

* * *

Molecular target: Serotonin 3 (5-HT3) receptor (Rattus norvegicus, UniProt P35563+Q9JJ16)
Assay: Inhibition of radiolabeled [3H]-Zacopride ligand binding to 5-hydroxytryptamine 3 receptor
Format: protein-complex assay
observed_property: IC50

{"molecule": "CN1C[C@@H](NS(=O)(=O)N(C)C)C[C@@H]2c3cccc4c3c(cn4C)C[C@H]21 [MESULERGINE]", "result": "2.13 nM"}

* * *

Biological target: Serotonin 3 (5-HT3) receptor (Rattus norvegicus, UniProt P35563+Q9JJ16)
Sequence (P35563 whole entry): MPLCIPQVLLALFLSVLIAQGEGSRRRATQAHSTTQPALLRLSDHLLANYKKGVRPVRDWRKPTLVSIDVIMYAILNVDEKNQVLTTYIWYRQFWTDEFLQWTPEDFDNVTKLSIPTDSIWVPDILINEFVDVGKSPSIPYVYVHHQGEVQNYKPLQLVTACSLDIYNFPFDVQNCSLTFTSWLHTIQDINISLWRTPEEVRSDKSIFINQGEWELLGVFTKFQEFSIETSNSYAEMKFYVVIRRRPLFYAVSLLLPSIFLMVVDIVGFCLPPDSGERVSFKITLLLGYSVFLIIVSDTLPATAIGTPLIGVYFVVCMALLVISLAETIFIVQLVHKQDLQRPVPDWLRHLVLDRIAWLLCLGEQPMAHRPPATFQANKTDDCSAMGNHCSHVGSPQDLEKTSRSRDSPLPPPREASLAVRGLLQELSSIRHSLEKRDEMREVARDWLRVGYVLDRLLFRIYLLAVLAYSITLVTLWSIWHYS
Sequence (Q9JJ16 whole entry): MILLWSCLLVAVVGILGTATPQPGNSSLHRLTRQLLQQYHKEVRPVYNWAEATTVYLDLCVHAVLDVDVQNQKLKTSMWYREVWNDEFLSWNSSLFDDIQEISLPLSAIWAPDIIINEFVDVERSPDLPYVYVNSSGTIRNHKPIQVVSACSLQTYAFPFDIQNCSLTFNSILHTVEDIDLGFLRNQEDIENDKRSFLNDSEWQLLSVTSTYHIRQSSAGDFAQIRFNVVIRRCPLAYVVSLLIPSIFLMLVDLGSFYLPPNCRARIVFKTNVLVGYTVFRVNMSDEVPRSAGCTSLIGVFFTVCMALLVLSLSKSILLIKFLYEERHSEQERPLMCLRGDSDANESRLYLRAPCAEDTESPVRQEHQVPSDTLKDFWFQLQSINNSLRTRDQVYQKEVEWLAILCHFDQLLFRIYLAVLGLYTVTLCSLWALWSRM
Test: Inhibition of [3H]BRL-43694 binding to 5-hydroxytryptamine 3 receptor of rat cortical homogenate.
pIC50: −log10 of the molar value.

{"smiles_record": "C=CCN1CCN(c2nc3cc(F)ccc3n3cccc23)CC1", "pIC50": 7.66}
{"smiles_record": "Fc1cccc2nc(N3CCNCC3)c3cccn3c12", "pIC50": 8.41}
{"smiles_record": "CN1CCN(c2cnc3ccccc3n2)CC1", "pIC50": 7.66}
{"smiles_record": "C=CCN1CCN(c2nc3cccc(F)c3n3cccc23)CC1", "pIC50": 7.55}
{"smiles_record": "c1ccc2nc(N3CCNCC3)ccc2c1", "pIC50": 8.21}
{"smiles_record": "CN1CCN(c2nc3cc(F)ccc3n3cccc23)CC1", "pIC50": 9.09}
{"smiles_record": "Cc1[nH]c2ccc(O)cc2c1CCN", "pIC50": 6.11}
{"smiles_record": "CCCN1CCN(c2nc3cccc(F)c3n3cccc23)CC1", "pIC50": 7.09}
{"smiles_record": "Fc1ccc2c(c1)nc(N1CCNCC1)c1cccn12", "pIC50": 8.27}
{"smiles_record": "C=CCN1CCN(c2nc3ccccc3n3cccc23)CC1", "pIC50": 7.96}
{"smiles_record": "CN1CCN(c2nc3c(F)cccc3n3cccc23)CC1", "pIC50": 8.02}
{"smiles_record": "CCCN1CCN(c2nc3cc(F)ccc3n3cccc23)CC1", "pIC50": 7.06}
{"smiles_record": "CCN1CCN(c2nc3ccccc3n3cccc23)CC1", "pIC50": 8.05}
{"smiles_record": "CCCN1CCN(c2nc3ccccc3n3cccc23)CC1", "pIC50": 7.29}
{"smiles_record": "CN1CCN(c2nc3cccc(F)c3n3cccc23)CC1", "pIC50": 9.36}
